- target or test system: UniProt:P35869
- Sequence (P35869 11-848): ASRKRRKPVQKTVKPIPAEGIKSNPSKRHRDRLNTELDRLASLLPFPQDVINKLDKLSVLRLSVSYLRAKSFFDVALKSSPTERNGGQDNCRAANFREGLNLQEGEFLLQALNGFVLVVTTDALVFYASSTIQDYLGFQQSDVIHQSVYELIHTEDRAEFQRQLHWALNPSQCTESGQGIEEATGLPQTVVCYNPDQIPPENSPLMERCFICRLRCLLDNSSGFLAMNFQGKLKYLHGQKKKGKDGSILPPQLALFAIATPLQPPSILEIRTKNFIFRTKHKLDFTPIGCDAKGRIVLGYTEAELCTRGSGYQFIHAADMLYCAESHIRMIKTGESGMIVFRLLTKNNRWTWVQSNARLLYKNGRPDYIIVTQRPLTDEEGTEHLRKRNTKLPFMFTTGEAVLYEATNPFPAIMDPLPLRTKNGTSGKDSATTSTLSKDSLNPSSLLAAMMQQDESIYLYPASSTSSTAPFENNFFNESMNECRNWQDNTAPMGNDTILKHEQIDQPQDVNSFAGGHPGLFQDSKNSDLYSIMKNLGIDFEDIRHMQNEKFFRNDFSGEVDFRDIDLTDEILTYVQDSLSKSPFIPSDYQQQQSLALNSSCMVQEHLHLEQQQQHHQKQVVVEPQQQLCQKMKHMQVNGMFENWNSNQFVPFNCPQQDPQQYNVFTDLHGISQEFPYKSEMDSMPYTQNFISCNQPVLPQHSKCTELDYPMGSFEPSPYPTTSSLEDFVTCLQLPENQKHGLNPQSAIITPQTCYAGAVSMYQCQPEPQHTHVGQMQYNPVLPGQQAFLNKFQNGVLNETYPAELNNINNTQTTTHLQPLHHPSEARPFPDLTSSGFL
- test name: In vitro assay 1: antagonism in human cell line (transactivation assay, U87 cells prestimulated with kynurenic acid, DRE firefly luciferase reporter)
- Type: cell-based
- Parameters: host or cells: U87 glioblastoma cells, stably transfected with DRE firefly luciferase and renilla reporter constructs
- settings: 150 uM kynurenic acid, 20 hours, read-out: Assay 1: AHR-luc Hum Antagonism IC50
pIC50: −log10 of the molar value.
Below, each of the compounds is paired with its reported pIC50 value.
reported metric: pIC50

1. O=C(NC(CO)C1CC1)c1cc(-c2ccc(Cl)cc2)nn(-c2cccnc2)c1=O (racemic) [Example 77] ... 7.95
2. O=C(NC[C@H](O)C(F)(F)F)c1cc(-c2ccc(Cl)cc2)nn(-c2ccnnc2)c1=O [Example 321] ... 7.30
3. Cn1cc(-n2nc(-c3ccc(C(F)(F)F)cc3)cc(C(=O)NC[C@H](O)CF)c2=O)cn1 [Example 245] ... 7.89
4. O=C(N[C@H](CO)CF)c1cc(-c2ccc(Cl)cc2)nn(-c2cccnc2)c1=O [Example 93] ... 7.61
5. Cn1cc(-n2nc(-c3ccc(Cl)cc3)cc(C(=O)NCC(O)C(F)F)c2=O)cn1 (single isomer, unassigned; (+)) [Example 23] ... 7.34
6. Cc1cc(-n2nc(-c3ccc(Cl)cc3)cc(C(=O)NC[C@H](O)C(F)(F)F)c2=O)cs1 [Example 225] ... 8.30
7. O=C(NC[C@H](O)CF)c1cc(-c2ccc(OC(F)(F)F)cc2)nn(-c2cccnc2)c1=O [Example 296] ... 6.93
8. COC(=O)[C@@H](CO)NC(=O)c1cc(-c2ccc(Cl)cc2)nn(-c2cnn(C)c2)c1=O [Example 267] ... 7.24
9. O=C(N[C@H]1COC[C@@H]1O)c1cc(-c2ccc(Cl)cc2)nn(-c2cncc(F)c2)c1=O (relative stereo) [Example 154] ... 7.43
10. CC(C)(O)C(NC(=O)c1cc(-c2ccc(OC(F)(F)F)cc2)nn(-c2cccnc2)c1=O)C(F)(F)F (single isomer, unassigned; enantiomer 1) [Example 136] ... 7.22
11. O=C(N[C@H](CO)C(F)(F)F)c1cc(-c2ccc(C(F)(F)F)cc2)nn(-c2cn[nH]c2)c1=O [Example 212] ... 8.77
12. Cn1cc(-n2nc(-c3ccc(OC(F)(F)F)cc3)cc(C(=O)N[C@@H]3COC[C@@H]3O)c2=O)cn1 (single isomer, unassigned; enantiomer 1) [Example 56] ... 7.59
13. O=C(NC(CO)C1CC1)c1cc(-c2ccc(Cl)cc2)nn(-c2cncc(F)c2)c1=O (racemic) [Example 97] ... 8.15
14. Cn1cc(-n2nc(-c3ccc(Cl)cc3)cc(C(=O)N[C@H]3CCCC[C@H]3O)c2=O)cn1 [Example 48] ... 8.60
